Where these numbers come from: patent US12162890B2

tested-target: HEK293 cells with stable expression of the GRIN1 gene and tetracycline-inducible expression of the GRIN2B gene (NMDA receptor, NR2B) (Homo sapiens, UniProt Q13224)
Sequence (Q13224 27-1484, other chains not shown): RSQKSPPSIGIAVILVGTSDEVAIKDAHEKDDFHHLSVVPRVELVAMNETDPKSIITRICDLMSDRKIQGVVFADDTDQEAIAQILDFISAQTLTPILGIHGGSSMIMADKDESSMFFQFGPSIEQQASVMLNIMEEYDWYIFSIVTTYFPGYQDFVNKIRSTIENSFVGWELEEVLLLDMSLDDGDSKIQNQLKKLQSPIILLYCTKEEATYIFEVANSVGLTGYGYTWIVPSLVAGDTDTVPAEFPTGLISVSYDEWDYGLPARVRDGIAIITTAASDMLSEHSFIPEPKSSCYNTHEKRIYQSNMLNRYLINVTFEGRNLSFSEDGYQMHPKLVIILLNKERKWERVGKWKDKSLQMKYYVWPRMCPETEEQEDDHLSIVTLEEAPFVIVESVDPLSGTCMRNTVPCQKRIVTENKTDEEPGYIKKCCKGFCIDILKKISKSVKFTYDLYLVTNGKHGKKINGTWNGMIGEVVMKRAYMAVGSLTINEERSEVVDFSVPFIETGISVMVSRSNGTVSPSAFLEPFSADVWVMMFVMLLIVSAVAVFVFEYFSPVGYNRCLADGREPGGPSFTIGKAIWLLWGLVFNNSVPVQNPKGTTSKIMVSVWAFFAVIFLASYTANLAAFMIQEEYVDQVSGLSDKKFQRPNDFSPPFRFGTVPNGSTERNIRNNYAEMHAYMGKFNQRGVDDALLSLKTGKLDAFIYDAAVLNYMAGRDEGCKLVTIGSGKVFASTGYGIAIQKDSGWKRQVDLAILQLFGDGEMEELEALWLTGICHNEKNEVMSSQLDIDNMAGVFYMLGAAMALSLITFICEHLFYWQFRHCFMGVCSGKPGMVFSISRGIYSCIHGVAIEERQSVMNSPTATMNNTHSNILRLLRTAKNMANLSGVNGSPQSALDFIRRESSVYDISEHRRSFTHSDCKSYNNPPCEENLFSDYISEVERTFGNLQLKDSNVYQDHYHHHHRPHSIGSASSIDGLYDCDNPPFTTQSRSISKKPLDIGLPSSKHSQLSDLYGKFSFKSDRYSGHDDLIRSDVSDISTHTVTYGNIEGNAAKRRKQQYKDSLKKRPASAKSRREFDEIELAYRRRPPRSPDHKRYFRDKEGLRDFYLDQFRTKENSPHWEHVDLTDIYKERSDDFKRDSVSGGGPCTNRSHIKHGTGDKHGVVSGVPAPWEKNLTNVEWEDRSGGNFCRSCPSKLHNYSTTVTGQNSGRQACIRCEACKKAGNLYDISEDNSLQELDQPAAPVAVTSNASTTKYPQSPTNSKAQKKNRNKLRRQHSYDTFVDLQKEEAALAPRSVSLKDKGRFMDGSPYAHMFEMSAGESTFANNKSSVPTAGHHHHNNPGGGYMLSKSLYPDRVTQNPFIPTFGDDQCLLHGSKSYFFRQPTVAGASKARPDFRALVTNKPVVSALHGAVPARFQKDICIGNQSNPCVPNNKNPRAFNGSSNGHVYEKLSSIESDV
assay-explanation: Fluo-8 Ca2+ flux assay: reversal of Ro 25-6981-mediated suppression of the Ca2+ response to co-agonist (glutamate/glycine)
Type: cell-based
reported-conditions: reversal of the Ro 25-6981 suppression of the Ca2+ response to co-agonist (glutamate/glycine)
Tick Yes if Response Recovered (%) is 60% or greater. Tick No if Response Recovered (%) is less than 60%.

> print(dat)
                                   molecule  group
1  Cn1cnc(-n2cc(-c3ccc(Cl)c(Cl)c3)c3c(=O)n(CC(=O)N4CC(C)(F)C4)ccc32)n1 [Example 270]    Yes
2  O=C(Cn1nnc2scc(-c3ccc(Cl)c(C(F)(F)F)c3)c2c1=O)N1CCCC1C(F)(F)F (stereo not shown) [Example 334]     No
3  CC1(F)CN(C(=O)Cn2ccn3c(C4CC4)nc(-c4ccc(Cl)c(Cl)c4)c3c2=O)C1 [Example 435]    Yes
4  O=C(Cn1ccc2c(c(-c3ccc(Cl)c(Cl)c3)cn2-c2ccccn2)c1=O)N1CCC(F)C1 (stereo not shown) [Example 229]    Yes
5  COCc1cn(CC(=O)N2CCC(F)C2)c(=O)c2c(-c3ccc(F)c(Cl)c3)csc12 (stereo not shown) [Example 128]     No
6  O=C(Cn1cnc2[nH]cc(-c3ccc(Cl)c(C(F)(F)F)c3)c2c1=O)N1CCCC1 [Example 148]    Yes

Could you now consider this next molecule?
Please tell me: is the molecule O=C(Cn1ccc2ncc(-c3ccc(Cl)c(Cl)c3)n2c1=O)N1CCC(F)C1 (stereo not shown) [Example 450] at or over 60% in terms of Response Recovered (%)?
No
